FYI, the data here is from ChEMBL document CHEMBL1201862.

test system: MCF7; test: NCI tumour cell line growth inhibition, 48 h
Active and inactive are the calls of the source. No stated cut-off is given here; in the data, active = GI50 up to about 1.1 µM and inactive = higher.
ASSAY_ENDPOINT: GI50

// solved cases for GI50 follow
{"columns": ["MOLECULE", "MEASURED_TARGET", "GI50"],
 "data": [
  ["O=C(O)C(Sc1ccc(Cl)cc1)Sc1ccc(Cl)cc1", "MCF7", "92.3 µM (inactive)"],
  ["Cc1cn(C2CC(N=[N+]=[N-])C(CO[Si](C)(C)C(C)(C)C)O2)c(=O)[nH]c1=O (configuration not stated)", "MCF7", "18 µM (inactive)"],
  ["O=C(/C=C/c1ccccc1)Nc1ccccc1SCCCCl", "MCF7", "4.4 µM (inactive)"],
  ["COc1cc(CNC(=O)[C@H](Cc2ccc(O)cn2)NC(C)=O)cc(OC)c1", "MCF7", "> 100 µM (inactive)"],
  ["O=C1/C(=C/Cc2ccco2)N=C(c2ccccc2)N1c1nc2ccc(Sc3ccccc3)cc2[nH]1", "MCF7", "14 µM (inactive)"],
  ["COc1ccc(C#CC(=O)O)c(OC)c1", "MCF7", "> 100 µM (inactive)"]
]}

Incoming: So what does the record say about GI50 for CN(C)Cc1cc(/C=C/C(=O)c2ccc(Br)cc2)cc(CN(C)C)c1O ?
Outgoing: 22.6 µM (inactive)

Incoming: So what does the record say about GI50 for Cc1ncc([N+](=O)[O-])n1CCN=[N+]=[N-] ?
Outgoing: > 100 µM (inactive)

Incoming: So what does the record say about GI50 for CCOC(=O)COc1c(OC)cc(C2C3=C(COC3=O)Oc3cc4c(cc32)OCO4)cc1OC (configuration not stated) ?
Outgoing: 3.27 µM (inactive)

Incoming: So what does the record say about GI50 for CCOC(=O)CCCn1nnc(C(=O)OCC)c1C(=O)OCC ?
Outgoing: > 100 µM (inactive)

Incoming: So what does the record say about GI50 for CCCCCc1nnc(NS(=O)(=O)c2ccc(NC(=O)OCC(C)C)cc2)s1 ?
Outgoing: 37.8 µM (inactive)

Incoming: So what does the record say about GI50 for O=C1C(Cl)=C(N2CCN(c3ccccn3)CC2)C(=O)c2c(O)ccc(O)c21 ?
Outgoing: 1.42 µM (inactive)

* * *

Each item that follows carries a reported GI50.
tested on: SK-MEL-28; assay: NCI tumour cell line growth inhibition, 48 h
Calls of active or inactive are those of the source. No stated cut-off is given here; in the data, active = GI50 up to about 1.1 µM and inactive = higher.

{"columns": ["COMPOUND", "MEASURED_TARGET", "GI50"],
 "data": [
  ["S=c1sc2c(Cl)ncnc2n1-c1ccccc1", "SK-MEL-28", "11.2 µM (inactive)"],
  ["C/C(C=O)=C/[C@@]1(C)O[C@@H](C)[C@@](C)(O)[C@@H]1O", "SK-MEL-28", "> 100 µM (inactive)"],
  ["Cc1ccc(CS(=O)(=O)C/N=C2\\Sc3ccccc3N\\C2=C/C(=O)c2ccc(Cl)cc2)cc1", "SK-MEL-28", "> 10 µM (inactive)"],
  ["Nc1nc(-c2ccco2)cc(-c2ccc(CO)o2)n1", "SK-MEL-28", "> 100 µM (inactive)"],
  ["CCOC(=O)C(NC(=O)c1nc[nH]c1[N+](=O)[O-])C(C)C (stereo unspecified)", "SK-MEL-28", "> 100 µM (inactive)"]
]}

Now look at this entry.
Incoming: So what does the record say about GI50 for O=C1c2ccccc2C(=O)c2[nH]cnc21 ?
Outgoing: > 100 µM (inactive)
